System: W138 cells
Assay Procedure: Morphological changes in cells
Type: cell-based, human
Run Parameters: normal W138 cells
Reported Endpoint: morphological change of cells

Before answering, review these 4 worked examples.
1. Oc1ccc(C=Cc2cc(O)cc(O)c2)cc1 [Resveratrol, 3,4′,5-trihydroxystilbene] | elongation
2. COc1ccc(C=Cc2cc(OC)c(OC)c(OC)c2)cc1 | flattening
3. COc1ccc(C=Cc2cc(OC)cc(OC)c2)cc1 | flattening
4. Oc1cc(O)cc(C=Cc2ccccc2)c1 [Analog R-1, 3,5-dihydroxystilbene] | elongation

Consider the additional compound presented here.
Asked: Tell me the measured morphological change of cells of Oc1ccc(C=Cc2cc(O)c(O)c(O)c2)cc1 [Analog R-3, 3,4,4′,5-tetrahydroxystilbene] , please.
Given back: elongation

====

Test system: 184-B5/HER cells
Assay Procedure: Growth inhibition in 184-B5/HER cells
Assay type: cell-based
Run Parameters: Homo sapiens, read-out: concentration that inhibited growth by 50% (IC50); 184-B5/HER cells
Reported Endpoint: pIC50
# pIC50 = -log10(concentration in molar units)

Before answering, review these 2 worked examples.
1) Oc1ccc(C=Cc2cc(O)cc(O)c2)cc1 [Resveratrol, 3,4′,5-trihydroxystilbene] | 4.98
2) COc1cc(C=Cc2ccc(OC)c(OC)c2)cc(OC)c1 [MR-2, 3,3′,4,5′-tetramethoxystilbene] | 3.92

Consider the additional compound presented here.
Asked: Tell me the measured pIC50 of COc1ccc(C=Cc2cc(OC)cc(OC)c2)cc1 [MR-0, 3,4′,5-trimethoxystilbene] , please.
Given back: 4.98
